- tgt: T1, IIB-Fc:ALK3-Fc heterodimer (human ActRIIB ECD-Fc paired with human ALK3 ECD-Fc) (human, UniProt Q13705-1 19-134; P36894 24-152)
- T1 construct: activin receptor type IIB (ActRIIB) extracellular domain, human, aa 19-134 of NP_001097.2; copies: 1 + 1
- assay.details: SPR; Biacore 8K, 37 °C; Fc-fusion receptor dimers captured by anti-human Fc antibody on a CM5 chip (100-150 RU); ligands injected in two-fold dilution series (300 s association, 600 s dissociation); HBS-EP+ supplemented with 350 mM NaCl and 0.5 mg/mL BSA; 1:1 Langmuir model with a term for mass transport
- condition.info: both partners purified
pKd: −log10 of the molar value.

binder	pKd
BMP10 (ligand, human, UniProt O95393 317-424, looked up, source: bought: R&D Systems) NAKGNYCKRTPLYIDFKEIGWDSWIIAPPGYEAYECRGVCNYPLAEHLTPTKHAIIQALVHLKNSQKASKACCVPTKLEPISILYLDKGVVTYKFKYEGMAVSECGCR	10.47
GDF11 (ligand, human, UniProt O95390 299-407, looked up, source: generated in house) NLGLDCDEHSSESRCCRYPLTVDFEAFGWDWIIAPKRYKANYCSGQCEYMFMQKYPHTHLVQQANPRGSAGPCCTPTKMSPINMLYFNDKQQIIYGKIPGMVVDRCGCS	10.31
BMP4 (ligand, human, UniProt P12644 293-408, looked up, source: bought: R&D Systems) SPKHHSQRARKKNKNCRRHSLYVDFSDVGWNDWIVAPPGYQAFYCHGDCPFPLADHLNSTNHAIVQTLVNSVNSSIPKACCVPTELSAISMLYLDEYDKVVLKNYQEMVVEGCGCR	11.39
BMP7 (ligand, human, UniProt P18075 293-431, looked up, source: bought: R&D Systems) STGSKQRSQNRSKTPKNQEALRMANVAENSSSDQRQACKKHELYVSFRDLGWQDWIIAPEGYAAYYCEGECAFPLNSYMNATNHAIVQTLVHFINPETVPKPCCAPTQLNAISVLYFDDSSNVILKKYRNMVVRACGCH	9.78
activin B (ligand, human, UniProt P09529 293-407, looked up, source: generated in house) GLECDGRTNLCCRQQFFIDFRLIGWNDWIIAPTGYYGNYCEGSCPAYLAGVPGSASSFHTAVVNQYRMRGLNPGTVNSCCIPTKLSTMSMLYFDDEYNIVKRDVPNMIVEECGCA	10.16
BMP6 (ligand, human, UniProt P22004 375-513, looked up, source: bought: R&D Systems) SASSRRRQQSRNRSTQSQDVARVSSASDYNSSELKTACRKHELYVSFQDLGWQDWIIAPKGYAANYCDGECSFPLNAHMNATNHAIVQTLVHLMNPEYVPKPCCAPTKLNAISVLYFDDNSNVILKKYRNMVVRACGCH	10.34
